For each record, write down the corresponding pEC50.
Molecular target: mutant HIV reverse transcriptases (Human immunodeficiency virus type 1, UniProt P12497, Y775L, cells depend on it)
Format: cell-based
pEC50: −log10 of the molar value.

Lab note: measured pEC50 of O=C(O)CNC(=O)c1ccc(NC(=O)CSc2nnc(Br)n2-c2ccc(C3CC3)c3ccccc23)c(Cl)c1 [compound 110] was < 7.00

Lab note: measured pEC50 of Cc1cc(S(N)(=O)=O)ccc1NC(=O)CSc1nnc(CF)n1-c1ccc(C)c2c1CCCC2 [compound 65] was 7.00 to 7.30

Lab note: measured pEC50 of CC(Sc1nnc(Br)n1-c1ccc(C2CC2)c2ccccc12)C(=O)Nc1ccc(S(N)(=O)=O)cc1Cl (centres unmarked) [compound 76] was < 7.00

Lab note: measured pEC50 of Cc1cc(C(=O)O)ccc1NC(=O)CSc1nnc(C(F)F)n1-c1ccc(C)c2c1CCCC2 [compound 5] was < 7.00

Lab note: measured pEC50 of CCOC(=O)C(C)NS(=O)(=O)c1ccc(NC(=O)CSc2nnc(C(F)F)n2-c2ccc(C)c3c2CCCC3)c(Cl)c1 (centres unmarked) [compound 56] was < 7.00

Lab note: measured pEC50 of Cc1cc(C)c2ccccc2c1-n1c(SCC(=O)Nc2ccc(S(N)(=O)=O)cc2Cl)nnc1C(F)(F)F [compound 83] was > 7.30

Lab note: measured pEC50 of COc1ccc2c(C3CC3)ccc(-n3c(Br)nnc3SCC(=O)Nc3ccc(S(=O)(=O)O)cc3Cl)c2c1 [compound 113] was < 7.00

Lab note: measured pEC50 of CCc1ccc(-n2c(SCC(=O)Nc3ccc(C(=O)O)cc3Cl)nnc2C(F)F)c2ccccc12 [compound 4] was > 7.30

---

Target: mutant HIV reverse transcriptases (Human immunodeficiency virus type 1, UniProt P12497, Y775L, cells depend on it)
pEC50: −log10 of the molar value.
Metric: pEC50

Lab note: measured pEC50 of CCCc1ccc(-n2c(Br)nnc2SCC(=O)Nc2ccc(S(N)(=O)=O)cc2Cl)c2ccccc12 was > 7.30

Lab note: measured pEC50 of Cc1cc(C)c2ccccc2c1-n1c(CF)nnc1SCC(=O)Nc1ccc(S(N)(=O)=O)cc1Cl was > 7.30

Lab note: measured pEC50 of NS(=O)(=O)c1ccc(NC(=O)CSc2nnc(Br)n2-c2ccc(C3CC3)cc2OC(F)(F)F)c(Cl)c1 was 7.00 to 7.30

Lab note: measured pEC50 of NS(=O)(=O)c1ccc(NC(=O)CSc2nnc(C(F)F)n2-c2ccc3c4c(cccc24)CC3)c(Cl)c1 was > 7.30

Lab note: measured pEC50 of NS(=O)(=O)c1ccc(NC(=O)CSc2nnc(Br)n2-c2ccc(C3CC3)cc2Cl)c(Cl)c1 was > 7.30

Lab note: measured pEC50 of Cc1ccc(-n2c(SCC(=O)Nc3ccc(S(=O)(=O)NC(C)C(=O)O)cc3Cl)nnc2C(F)F)c2c1CCCC2 (stereo not drawn) was < 7.00

Lab note: measured pEC50 of CNS(=O)(=O)c1ccc(NC(=O)CSc2nnc(C(F)F)n2-c2ccc(C)c3ccccc23)c(Cl)c1 was 7.00 to 7.30

Lab note: measured pEC50 of CCc1ccc(-n2c(C)nnc2SCC(=O)Nc2ccc(S(N)(=O)=O)cc2C)c2c1CCCC2 was < 7.00

Lab note: measured pEC50 of CCc1ccc(-n2c(Br)nnc2SCC(=O)Nc2ccc(C(=O)NCC(C)(C)N)cc2Cl)c2ccccc12 was > 7.30
